Measured values drawn from patent US20170037110A1 for this set.

Recorded measurements of peptide exchange yield, one per entry
target: T1, HLA-A*02:01 (human); assay: UV peptide exchange ELISA
T1 construct: monomers captured on streptavidin plates; also called MHC class I

{"columns": ["binder", "peptide exchange yield"],
 "data": [
  ["ILAQEQLVVGV", "50 to 75%"]
]}

For the binder VLDDSIYLV , report peptide exchange yield. 20 to 50%

# return recorded peptide exchange yield for entry KLLEGQVIQL 50 to 75%

Respond only with peptide exchange yield recorded for ALIAEGIALV 50 to 75%
